Tested on: Haemophilus influenzae 1218
Assay: MIC, microtiter broth dilution (NCCLS M100-S14), H. influenzae 1218 (susceptible)
Assay type: cell-based
Conditions: Haemophilus influenzae 1218
Text: The assay described herein includes a panel of bacterial strains assembled to include a variety of target pathogenic species, including representatives of macrolide resistance mechanisms that have been characterized. In many cases, both the macrolide-susceptible parent strain and the macrolide-resistant strain derived from it are available to provide a more accurate assessment of the compound's ability to circumvent the resistance mechanism. […]
Form field: MIC H. influenzae 1218 (one value per entry).

# molecule, test.target, endpoint.value
data = [
    ("CC[C@H]1OC(=O)[C@H](C)C(=O)[C@H](C)[C@@H](O[C@@H]2O[C@H](C)C[C@H](N(C)C)[C@H]2O)[C@](C)(OC)C[C@@H](C)C(=O)[C@H](C)[C@H]2N(C3CN(C(C)c4ccnc5ccccc45)C3)C(=O)O[C@]12C (stereo partly shown) [Example 1.63]", "Haemophilus influenzae 1218", "1 µg/mL"),
    ("CCC1OC(=O)C(C)C(=O)C(C)C(OC2OC(C)CC(N(C)C)C2O)C(C)(OC)CC(C)C(=O)C(C)C2N(C3CN(Cc4ccc(Cl)cc4Cl)C3)C(=O)OC12C (stereo not shown)", "Haemophilus influenzae 1218", "0.25 µg/mL"),
    ("CCC1OC(=O)C(C)C(=O)C(C)C(OC2OC(C)CC(N(C)C)C2O)C(C)(OC)CC(C)C(=O)C(C)C2N(C3CN(S(=O)(=O)c4cnc5ncccn45)C3)C(=O)OC12C (stereo not shown)", "Haemophilus influenzae 1218", "0.5 µg/mL"),
    ("CCC1OC(=O)C(C)C(=O)C(C)C(OC2OC(C)CC(N(C)C)C2O)C(C)(OC)CC(C)C(=O)C(C)C2N(C3CN(S(=O)(=O)c4ccc(-c5n[nH]c(=O)[nH]c5=O)cc4)C3)C(=O)OC12C (stereo not shown)", "Haemophilus influenzae 1218", "0.5 µg/mL"),
]

Prompt: Observed MIC H. influenzae 1218 on Haemophilus influenzae 1218 for CCC1OC(=O)C(C)C(=O)C(C)C(OC2OC(C)CC(N(C)C)C2O)C(C)(OC)CC(C)C(=O)C(C)C2N(C3CN(S(=O)(=O)c4ccc(-n5cccn5)c(F)c4)C3)C(=O)OC12C (stereo not shown) , please.
Completion: 1 µg/mL

Prompt: One more molecule: CCC1OC(=O)C(C)C(=O)C(C)C(OC2OC(C)CC(N(C)C)C2O)C(C)(OC)CC(C)C(=O)C(C)C2N(C3CN(S(=O)(=O)c4ccc5c(c4)CCC5)C3)C(=O)OC12C (stereo not shown)
Completion: 1 µg/mL

Prompt: Moving on to the next molecule: CCC1OC(=O)C(C)C(=O)C(C)C(OC2OC(C)CC(N(C)C)C2O)C(C)(OC)CC(C)C(=O)C(C)C2N(C3CN(Cc4c(Cl)cnc5[nH]cnc45)C3)C(=O)OC12C (stereo not shown)
Completion: 0.5 µg/mL

Prompt: Thanks! And CCC1OC(=O)C(C)C(=O)C(C)C(OC2OC(C)CC(N(C)C)C2O)C(C)(OC)CC(C)C(=O)C(C)C2N(C3CN(S(=O)(=O)c4ccc(-n5cncn5)cc4)C3)C(=O)OC12C (stereo not shown) ?
Completion: 2 µg/mL

Prompt: Field entry: CCC1OC(=O)C(C)C(=O)C(C)C(OC2OC(C)CC(N(C)C)C2O)C(C)(OC)CC(C)C(=O)C(C)C2N(C3CN(Cc4cccnc4)C3)C(=O)OC12C (stereo not shown)
Completion: 0.5 µg/mL

Prompt: Then what about the molecule CCC1OC(=O)C(C)C(=O)C(C)C(OC2OC(C)CC(N(C)C)C2O)C(C)(OC)CC(C)C(=O)C(C)C2N(CC3CN(C(=O)c4ccc5cnccc5n4)C3)C(=O)OC12C.O=CO (stereo not shown) ?
Completion: 2 µg/mL
